Parameter: CC50 at 3 days. Scope: all listed entries.
Experiment: in vitro
Settings: human
Output spec: scalar in µM, unitless text.

Use the examples below as a reference point.
compound	units	CC50 at 3 days
O=C(Nc1ccc(C(F)(F)F)cc1)Nc1cc(Cl)cc(Cl)c1 [Compound 13]	µM	0.29
CN1CCN(Cc2ccc(NC(=O)Nc3cc(Cl)cc(Cl)c3)cc2C(F)(F)F)CC1.Cl [Compound 40]	µM	13
O=C(Nc1cccc(C(F)(F)F)c1)Nc1ccc(Cl)cc1Cl [Compound 9]	µM	6.9

Here is the next item to consider.
Data request: Consider the compound O=C(Nc1cc(Cl)cc(Cl)c1)Nc1ccc(CN2CCOC(=O)C2)c(C(F)(F)F)c1 [Compound 64] . State its measured CC50 at 3 days.
Data returned: 38

====

Experiment: Kinetic solubility
Conditions: kinetic from dmso stock
Where solubility kinetic equals or exceeds 10 µM, the correct label is criterion met; where it does not, the label is criterion not met.

compound	label class
Cl.O=C(Nc1cc(Cl)cc(Cl)c1)Nc1ccc(C(F)(F)F)c(CN2CCOCC2)c1	criterion not met
Cl.NC(=O)C1CN(Cc2ccc(NC(=O)Nc3cc(Cl)cc(Cl)c3)cc2C(F)(F)F)CCO1 (centres unmarked)	criterion not met
COC(=O)CNCc1ccc(NC(=O)Nc2cc(Cl)cc(Cl)c2)cc1C(F)(F)F.Cl	criterion not met

Data request: Could you tell me if the measured solubility kinetic of Cl.O=C(Nc1cc(Cl)cc(Cl)c1)Nc1ccc(CN2CCS(=O)(=O)CC2)c(C(F)(F)F)c1 reaches 10 µM or more?
Data returned: criterion not met

Data request: Please check the record O=C(Nc1cnc(C(F)(F)F)nc1)Nc1cc(Cl)cc(Cl)c1 and state if its solubility kinetic is at or above 10 µM.
Data returned: criterion met

====

Experiment: Kinetic solubility
Details: kinetic from dmso stock
This listing pairs compounds with measured solubility kinetic.
// return numeric value only (unit: µM, not printed)

// solved cases for solubility kinetic follow
compound structure	solubility kinetic, µM
Cl.O=C1CN(Cc2ccc(NC(=O)Nc3cc(Cl)cc(Cl)c3)cc2C(F)(F)F)CCN1	11.2
O=C(Nc1cc(Cl)cc(Cl)c1)Nc1ccc(CN2CCOC(=O)C2)c(C(F)(F)F)c1	21

Data request: Query solubility kinetic for NC(=O)c1ccc(NC(=O)Nc2cc(Cl)cc(Cl)c2)cc1C(F)(F)F
Data returned: 32.5

Data request: Output solubility kinetic of Cl.O=C(Nc1cc(Cl)cc(Cl)c1)Nc1ccc(CN2CCOCC2)c(C(F)(F)F)c1
Data returned: 4.2

====

Molecular target: SARS‐CoV‐2 RdRp complex (nsp12, nsp7, nsp8) (Severe acute respiratory syndrome coronavirus 2, UniProt P0DTD1)
Assay: biochemical
Type: biochemical
Conditions: read-out: RA ± SD (residual activity of RdRp), at 10 μM concentration of screened compounds; AUC with compound / AUC of noninhibited reaction
experimental endpoint: remaining activity at 10 µM (%)
Quick reminder: number only, in %, skip the unit.

Some solved entries appear below for comparison.
O=C(Nc1cccc(C(F)(F)F)c1)Nc1c(Cl)cccc1Cl 100
O=C(Nc1cc(Cl)cc(Cl)c1)Nc1cnc(C(F)(F)F)cn1 75
O=C(Nc1cc(Cl)cc(Cl)c1)Nc1ccccc1C(F)(F)F 100

Would you kindly look at the next entry?
Data request: Tell me its remaining activity at 10 µM given O=C(Nc1ccc(C(F)(F)F)nc1)Nc1cc(Cl)cc(Cl)c1 as the entry.
Data returned: 35
